Values of IC50 reported for Glyceraldehyde-3-phosphate dehydrogenase (Homo sapiens) appear below.
Observable: IC50

>  <Given Smiles>
C[C@H]1CN(C2=C(Cl)C(=O)N(c3cccc(C(F)(F)F)c3)C2=O)CCN1

>  <Observed Result>
> 50 µM (inconclusive)

$$$$
>  <Given Smiles>
O=C1C(Cl)=C(Cl)C(=O)N1c1cc(Cl)cc(Cl)c1

>  <Observed Result>
> 100 µM (not active)

$$$$
>  <Given Smiles>
Cc1c(-c2ccccc2)n[nH]c1C(=O)O

>  <Observed Result>
> 100 µM (not active)

$$$$
>  <Given Smiles>
Cc1ccc(N2C(=O)C(Cl)=C(N(C)C)C2=O)cc1

>  <Observed Result>
> 50 µM (inconclusive)

$$$$
>  <Given Smiles>
NNC(=O)c1cc(-c2cc(F)c(F)cc2F)[nH]n1

>  <Observed Result>
> 10 µM (inconclusive)

$$$$

----------
target: Serine/threonine-protein kinase pim-1 (Homo sapiens); format: functional
Sequence (P11309 whole entry): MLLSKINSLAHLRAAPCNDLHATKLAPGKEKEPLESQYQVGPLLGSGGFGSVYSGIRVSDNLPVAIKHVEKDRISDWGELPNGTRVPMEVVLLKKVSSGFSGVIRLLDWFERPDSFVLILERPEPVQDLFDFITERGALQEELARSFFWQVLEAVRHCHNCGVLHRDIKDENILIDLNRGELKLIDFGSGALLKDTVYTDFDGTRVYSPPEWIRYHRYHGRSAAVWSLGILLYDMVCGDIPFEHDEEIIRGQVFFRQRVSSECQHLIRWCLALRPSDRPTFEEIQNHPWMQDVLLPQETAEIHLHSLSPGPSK
Active and inactive are the calls of the source.
Reported Ki is given for each of the following compounds.
Observable: Ki

>  <Compound>
CC(C)(O)CNc1cc(-c2c[nH]c3ncccc23)cc(Cl)n1

>  <Observed Result>
1 µM (active)

$$$$
>  <Compound>
CC(C)(O)c1cn(-c2ccc3[nH]ncc3c2)nn1

>  <Observed Result>
50.1 µM (active)

$$$$
>  <Compound>
OCc1cc(-c2ccc3[nH]ncc3c2)on1

>  <Observed Result>
15.8 µM (active)

$$$$
>  <Compound>
NC1CCC(Nc2nccc(-c3c[nH]c4ncccc34)n2)CC1 (centres undefined)

>  <Observed Result>
0.251 µM (active)

$$$$

----------
molecular target: Peroxisome proliferator-activated receptor gamma/Nuclear receptor coactivator 2 (Homo sapiens); type: functional;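 further: agonist potency for raising coactivator recruitment to the receptor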
Sequence (P37231 whole entry): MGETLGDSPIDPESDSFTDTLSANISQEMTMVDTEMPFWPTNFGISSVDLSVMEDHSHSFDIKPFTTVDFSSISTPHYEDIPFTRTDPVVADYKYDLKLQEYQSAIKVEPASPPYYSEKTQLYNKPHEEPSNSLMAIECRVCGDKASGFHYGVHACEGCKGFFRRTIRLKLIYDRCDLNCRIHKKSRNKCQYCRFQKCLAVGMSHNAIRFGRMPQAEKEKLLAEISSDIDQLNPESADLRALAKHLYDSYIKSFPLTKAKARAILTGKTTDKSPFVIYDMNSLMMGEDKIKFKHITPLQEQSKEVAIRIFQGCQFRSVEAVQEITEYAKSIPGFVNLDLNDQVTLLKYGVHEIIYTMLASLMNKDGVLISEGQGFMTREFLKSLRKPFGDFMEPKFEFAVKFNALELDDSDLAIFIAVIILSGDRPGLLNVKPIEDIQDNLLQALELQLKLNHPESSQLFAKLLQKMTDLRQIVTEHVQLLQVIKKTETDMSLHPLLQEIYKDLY
Sequence (Q15596 whole entry, further chain): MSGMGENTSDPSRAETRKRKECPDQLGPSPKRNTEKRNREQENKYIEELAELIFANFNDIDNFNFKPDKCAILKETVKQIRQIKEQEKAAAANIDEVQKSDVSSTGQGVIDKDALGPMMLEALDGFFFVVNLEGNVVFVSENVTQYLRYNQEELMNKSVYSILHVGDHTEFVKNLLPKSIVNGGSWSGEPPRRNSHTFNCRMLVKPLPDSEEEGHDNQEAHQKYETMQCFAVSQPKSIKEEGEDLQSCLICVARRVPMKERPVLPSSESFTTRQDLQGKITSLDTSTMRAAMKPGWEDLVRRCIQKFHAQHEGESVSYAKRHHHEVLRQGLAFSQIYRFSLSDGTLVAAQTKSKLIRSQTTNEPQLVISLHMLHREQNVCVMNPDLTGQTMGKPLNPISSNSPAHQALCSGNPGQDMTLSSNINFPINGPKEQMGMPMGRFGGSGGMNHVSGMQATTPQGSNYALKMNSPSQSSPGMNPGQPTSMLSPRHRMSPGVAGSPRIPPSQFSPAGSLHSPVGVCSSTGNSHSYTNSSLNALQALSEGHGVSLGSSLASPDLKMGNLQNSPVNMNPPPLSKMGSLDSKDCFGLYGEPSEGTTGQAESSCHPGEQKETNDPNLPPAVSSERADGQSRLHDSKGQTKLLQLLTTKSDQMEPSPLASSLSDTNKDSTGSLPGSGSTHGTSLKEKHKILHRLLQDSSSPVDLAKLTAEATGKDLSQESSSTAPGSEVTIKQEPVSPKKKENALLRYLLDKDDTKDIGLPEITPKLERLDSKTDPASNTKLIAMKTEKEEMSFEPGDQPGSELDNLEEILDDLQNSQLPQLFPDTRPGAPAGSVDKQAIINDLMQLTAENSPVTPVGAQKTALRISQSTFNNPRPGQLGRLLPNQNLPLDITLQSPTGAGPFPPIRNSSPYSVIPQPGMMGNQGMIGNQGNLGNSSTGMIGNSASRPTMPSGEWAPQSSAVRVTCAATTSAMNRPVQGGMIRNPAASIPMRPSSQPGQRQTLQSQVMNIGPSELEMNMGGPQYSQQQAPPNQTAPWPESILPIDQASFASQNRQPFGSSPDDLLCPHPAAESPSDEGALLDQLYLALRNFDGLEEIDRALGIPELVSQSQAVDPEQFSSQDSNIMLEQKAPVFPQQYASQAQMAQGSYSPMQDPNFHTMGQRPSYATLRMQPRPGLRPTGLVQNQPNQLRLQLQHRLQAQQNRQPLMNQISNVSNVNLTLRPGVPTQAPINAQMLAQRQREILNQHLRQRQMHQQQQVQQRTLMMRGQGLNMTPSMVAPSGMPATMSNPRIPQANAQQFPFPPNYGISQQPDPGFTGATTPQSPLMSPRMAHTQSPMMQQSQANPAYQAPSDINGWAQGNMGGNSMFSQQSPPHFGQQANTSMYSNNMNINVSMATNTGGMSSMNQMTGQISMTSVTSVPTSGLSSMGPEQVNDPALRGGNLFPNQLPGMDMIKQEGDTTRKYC

>  <Compound>
COc1ccc(C2(CNC(=O)/C=C\c3ccco3)CCCC2)cc1OC

>  <EC50>
> 79.4 µM (not active)

$$$$
>  <Compound>
Cc1ccccc1CC1(CO)CCCN(C(=O)CCC(=O)c2ccccc2)C1 (stereo not given)

>  <EC50>
> 79.4 µM (not active)

$$$$
>  <Compound>
Cc1ccc(-n2c(C)cc(C(=O)COc3c(CO)cc(F)cc3CO)c2C)cc1C

>  <EC50>
> 79.4 µM (not active)

$$$$
>  <Compound>
COc1cccc2sc(N3CCN(c4nc5ccccc5s4)CC3)nc12

>  <EC50>
19.1 µM (not active)

$$$$
>  <Compound>
CCOC(=O)n1cc(-c2cnc(CNC(=O)C(C)(c3ccccc3)c3ccccc3)o2)c2ccccc21

>  <EC50>
> 79.4 µM (not active)

$$$$

----------
Reported AC50 is given for each of the following compounds.
target: FAD-linked sulfhydryl oxidase ALR (Homo sapiens); assay: inhibitors of human ALR sulfhydryl oxidase, dose response, biochemical, H2O2 detection, luminescence, cherry-pick (AID 493248)
Sequence (P55789 whole entry): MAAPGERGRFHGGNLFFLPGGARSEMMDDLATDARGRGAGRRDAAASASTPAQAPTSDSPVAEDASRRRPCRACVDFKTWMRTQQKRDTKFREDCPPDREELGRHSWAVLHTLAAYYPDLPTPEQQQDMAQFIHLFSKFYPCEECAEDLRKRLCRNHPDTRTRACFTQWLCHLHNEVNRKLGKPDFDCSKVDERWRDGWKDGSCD
Active and inactive are the calls of the source.
Observable: AC50

>  <Compound>
CC(C)(C)c1ccc(-c2nc3cc(N)ccc3o2)cc1

>  <Observed Result>
751 nM (active)

$$$$
>  <Compound>
C/C(CC(=O)Nc1ccc(N(C)C)cc1)=N\NC(=O)c1ccc([N+](=O)[O-])cc1

>  <Observed Result>
5090 nM (active)

$$$$
>  <Compound>
CCCS(=O)(=O)N1CCCC(C(=O)NCCCN(CC)c2cccc(C)c2)C1 (stereo unspecified)

>  <Observed Result>
1480 nM (active)

$$$$
>  <Compound>
ClCc1csc(-c2ccc(Cl)cc2)n1

>  <Observed Result>
4370 nM (active)

$$$$
>  <Compound>
COc1cc(/C=N/Nc2nc3ccccc3[nH]2)ccc1O

>  <Observed Result>
1160 nM (active)

$$$$
>  <Compound>
Cc1ccc(NCc2nnc3n2CCCCC3)c(C)c1

>  <Observed Result>
1350 nM (active)

$$$$
>  <Compound>
Cc1cccc(C)c1NC(=O)c1nc(S(=O)(=O)Cc2ccccc2)ncc1Cl

>  <Observed Result>
1740 nM (active)

$$$$
>  <Compound>
Cc1noc(C)c1C(=O)N1CCCC(Nc2ccc(C(C)C)cc2)C1 (stereo unspecified)

>  <Observed Result>
7670 nM (active)

$$$$
>  <Compound>
NS(=O)(=O)c1ccc(NNC(=O)c2ccc(Br)o2)c([N+](=O)[O-])c1

>  <Observed Result>
8060 nM (active)

$$$$
>  <Compound>
O=C(O)c1cccc(S(=O)(=O)Nc2ccc(N3CCCCC3)cc2)c1

>  <Observed Result>
1750 nM (active)

$$$$
>  <Compound>
Oc1ccc(-c2cn3ccccc3n2)cc1

>  <Observed Result>
97 nM (active)

$$$$
